Assay: qHTS assay to identify small molecule agonists or antagonists of the thyroid stimulating hormone receptor (TSHR) signaling pathway - wild type cell line counter screen (AID 1259384); also: % is scaled to controls: 0 for no effect and ±100 for the full control effect
Settings: HEK293 wild type, cAMP HTRF counter-screen; series mostly up to 92.4 µM
Results filed as inconclusive are left out. The source made the active and inactive calls. Calls follow the shape of the full dose curve.
Experimental Endpoint: outcome

>>> data_value("O=C(CCCN1CC=C(n2c(=O)[nH]c3ccccc32)CC1)c1ccc(F)cc1")
"inactive"
>>> data_value("C/C=C(/C(=C/C)c1ccc(O)cc1)c1ccc(O)cc1")
"inactive"
>>> data_value("CCCCCC[C@@H](O)C/C=C\\CCCCCCCC(=O)O")
"inactive"
>>> data_value("Nc1nnc(-c2ccc([N+](=O)[O-])o2)o1")
"inactive"

We next turn to a different compound, shown below.
**Q:** Which outcome reading was recorded for the compound CCCCCCCCN ?
**A:** inactive

* * *

Assay: qHTS assay to identify small molecule antagonists of the peroxisome proliferator-activated receptor gamma (PPARg) signaling pathway - cell viability counter screen (AID 743194); also: nearly all actives have a fitted effect of over 55% in size
Conditions: PPARg-bla HEK293H viability, CellTiter-Glo luminescence, 17 h, co-treated with 50 nM rosiglitazone; series mostly up to 62.6 µM
Records with an inconclusive call do not appear. The source made the active and inactive calls. The call rests on the fitted dose curve; in most records, active means well fitted cell-killing curve with a large enough effect in the repeat runs; inconclusive means weak or mixed curves, or effect the other way; inactive means no such curve, though single readings can be large or run the other way.
Entry note: the call must match one of yes for active, no for inactive

Some solved entries appear below for comparison.
>>> assigned_category("Cc1ccccc1S")
"no"
>>> assigned_category("C=CC(=O)[O-].C=CC(=O)[O-].[Zn+2]")
"no"
>>> assigned_category("CCc1ccccc1")
"no"
>>> assigned_category("CC(=O)N/N=C/c1ccc([N+](=O)[O-])o1")
"no"
>>> assigned_category("Cc1ccc(Cl)c(Nc2ccccc2C(=O)O)c1Cl")
"no"
>>> assigned_category("CCN(CC)CCNC(=O)COc1ccc(OC)cc1")
"no"

**Q:** What was the test verdict on CCOc1cccc(-n2cc(C(=O)N3CCN(c4cc(C(=O)O)c5ccccc5c4)CC3)nc2-c2ccc(C)cc2)c1 ?
**A:** yes

**Q:** Please indicate how the test categorized Cc1ccc2c(Br)cc(Br)c(O)c2n1 .
**A:** yes

**Q:** Hi team, can someone confirm the assay call for O=C(Nc1cccc2c(=O)cc(-c3nn[nH]n3)oc12)c1ccc(OCCCCc2ccccc2)cc1 ?
**A:** no

**Q:** Entry CCC(C)(C)OC : call = ?
**A:** no

**Q:** In this assay, the call recorded for Cc1ccc(OC(=O)c2ccccc2O)cc1 was what?
**A:** no

**Q:** How was Cc1c(C)c2c(c(C)c1OC(=O)CCC(=O)OCCO)CC[C@@](C)(CCC[C@H](C)CCC[C@H](C)CCCC(C)C)O2 classified in this test?
**A:** yes

**Q:** Recorded test call requested for Oc1cccc(O)c1O
**A:** no

* * *

Test: qHTS assay to test for compound auto fluorescence at 535 nm (green) in HEK293 cell free culture (AID 720682); also: % is scaled to controls: 0 for no effect and ±100 for the full control effect
Details: cell-free medium, green autofluorescence 485/535 nm, hits give high values; series mostly up to 91.3 µM
Activity calls are given as the source filed them. Calls follow the shape of the dose curve; as a rule, active = well fitted curve in the direction sought with a large enough effect in the repeat runs; inconclusive = weak or mixed curves; inactive = flat fitted curve, though single readings scatter.
Experimental Endpoint: activity change

>>> data_value("CC=C(Cl)Cl")
"inactive"
>>> data_value("O=[N+]([O-])c1ccc(O/N=C/c2cc(Br)c(O)c(Br)c2)c([N+](=O)[O-])c1")
"inactive"
>>> data_value("O[C@@H]1CO[C@H]2[C@@H]1OC[C@@H]2O")
"inactive"
>>> data_value("CCOC(=O)OC(C)OC(=O)[C@@H]1N2C(=O)[C@@H](NC(=O)[C@H](N)c3ccccc3)[C@H]2SC1(C)C (some centres undefined)")
"-0.0186% [at 18.6 µM] (inactive)"

* * *

Assay: qHTS assay to identify small molecule antagonists of the estrogen receptor alpha (ER-alpha) signaling pathway - cell viability counter screen (AID 743074);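 also: HEK293 cells carrying ER-alpha-UAS-bla reporter stimulated with 17beta-estradiol; % is scaled to controls: 0 for no effect and ±100 for the full control effect; nearly all actives have a fitted effect of over 45% in size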
Settings: ERalpha-bla HEK293 viability, CellTiter-Glo luminescence, 18 h; series mostly up to 69.4 µM
Records with an inconclusive call do not appear. Calls of active or inactive are those of the source. Calls come from the whole dose curve.
Could you please pick one outcome from this set? class 1 = active, class 0 = inactive

Answered examples (5):
>>> assigned_category("CC(C)(c1ccccc1)c1ccccc1")
"class 0"
>>> assigned_category("CN1C(=O)OC(C)(C)C1=O")
"class 0"
>>> assigned_category("Brc1cc(Br)c(Oc2cc(Br)c(Br)cc2Br)cc1Br")
"class 0"
>>> assigned_category("NCCNCCO")
"class 0"
>>> assigned_category("O=C1NCCN1CCO")
"class 0"

**Q:** Recorded test outcome, item Brc1cc2ccccc2c2ccccc12
**A:** class 0

**Q:** Which outcome was assigned to Oc1ccc(Cl)c2cccnc12 in this test?
**A:** class 0

**Q:** Recorded call for CC=C(Cl)Cl ?
**A:** class 0

**Q:** Assay outcome for COC(=O)CCS : what was it?
**A:** class 0

**Q:** Just curious, what result did C[C@@H]1CC(=O)NN=C1c1ccc(NN=C(C#N)C#N)cc1 get here?
**A:** class 0

* * *

Experiment: qHTS RealTime-Glo MT Cell Viability Assay in HEK293 cells - 8 hour (AID 1224887); also: nearly all actives have a fitted effect of over 50% in size
Conditions: RealTime-Glo luminescence; series mostly up to 76.8 µM
Inconclusive results are not listed. Calls of active or inactive are those of the source. The call rests on the fitted dose curve; in most records, active means well fitted cell-killing curve with a large enough effect in the repeat runs; inconclusive means weak or mixed curves, or effect the other way; inactive means flat fitted curve, though single readings scatter.
Respond using exactly one of the listed classes: T = active, F = inactive

Answered examples (3):
>>> assigned_category("OCCOCC#CCOCCO")
"F"
>>> assigned_category("CN1C(=O)N(c2ccccc2Br)Cc2cnc(Nc3ccc4c(c3)OCC(CO)O4)nc21 (centres undefined)")
"T"
>>> assigned_category("O=C(Nc1cccc2c(=O)cc(-c3nn[nH]n3)oc12)c1ccc(OCCCCc2ccccc2)cc1")
"F"

Please turn your attention to the following entry.
**Q:** Kindly provide the recorded test outcome for the following compound: O=C(OCC(O)CO)c1ccccc1Nc1ccnc2cc(Cl)ccc12 (centres undefined)
**A:** T

* * *

Experiment: qHTS assay to identify small molecule agonists of the estrogen receptor beta (ER-beta) signaling pathway - cell viability counter screen (AID 1259380); also: nearly all actives have a fitted effect of over 30% in size
Settings: ER-beta-bla HEK293T viability, CellTiter-Glo luminescence, 16 h; series mostly up to 92.4 µM
Records with an inconclusive call do not appear. Activity calls are given as the source filed them. Calls follow the shape of the dose curve; as a rule, active = well fitted cell-killing curve with a large enough effect in the repeat runs; inconclusive = weak or mixed curves, or effect the other way; inactive = flat fitted curve, though single readings scatter.
Tick one outcome: active, inactive

Before answering, review these 3 worked examples.
>>> assigned_category("Cc1ccccc1N=C(N)Nc1ccccc1C")
"inactive"
>>> assigned_category("Nc1cccc2c1CN(C1CCC(=O)NC1=O)C2=O (stereo unspecified)")
"inactive"
>>> assigned_category("CC(C)COCC(CN(Cc1ccccc1)c1ccccc1)N1CCCC1 (stereo unspecified)")
"active"

**Q:** Test call, this molecule: Cc1cc(C)c(N)cc1C
**A:** inactive

**Q:** Hi team, can someone confirm the assay call for O=C1c2ccccc2C(=O)c2c(O)c(O)cc(O)c21 ?
**A:** inactive

**Q:** Given Cc1ccc(CO)cc1 , state the outcome it received in this test.
**A:** inactive

**Q:** Can you look up the reported call for OC[C@H]1O[C@@H](n2cnc3c(=S)nc[nH]c32)[C@H](O)[C@@H]1O for me?
**A:** active

**Q:** Which outcome did this test record for the molecule CCN(CC)CCNC(=O)COc1ccc(OC)cc1 ?
**A:** inactive

**Q:** Which result was noted for this molecule in the test: Cc1[nH]cnc1CN1CCc2c(c3ccccc3n2C)C1=O
**A:** inactive

**Q:** Per the assay record, what outcome was assigned to C=CC(=O)[O-].C=CC(=O)[O-].[Zn+2] ?
**A:** inactive

**Q:** Short answer needed: outcome of this test for C/C=C(/C(=C/C)c1ccc(O)cc1)c1ccc(O)cc1 ?
**A:** inactive

**Q:** In this assay, the call recorded for CC(CO)CO was what?
**A:** inactive

**Q:** What did the test return for CC(C)(C)CC(=O)OCC(=O)[C@@]1(O)CC[C@H]2[C@@H]3CCC4=CC(=O)C=C[C@]4(C)[C@H]3[C@@H](O)C[C@@]21C ?
**A:** active

**Q:** Status in this test for Cc1ccccc1S ?
**A:** inactive

**Q:** Recorded test outcome, item CCOC(=O)c1ccccc1C(=C1C=C(Br)C(=O)C(Br)=C1)c1cc(Br)c(O)c(Br)c1
**A:** active

**Q:** Assay result, entry O=C1CCCCCCCCCCOCCCCO1 — outcome?
**A:** inactive

**Q:** Please state the recorded outcome for this molecule: CCOC(=O)OC(C)OC(=O)[C@@H]1N2C(=O)[C@@H](NC(=O)[C@H](N)c3ccccc3)[C@H]2SC1(C)C (stereo partly specified)
**A:** inactive

**Q:** Fill in: this test's call for CCC1CO1 (stereo unspecified) is ___
**A:** inactive

**Q:** Dear all, I need the recorded test outcome for CC(=O)OCC(=O)NCCCOc1cccc(CN2CCCCC2)c1 , thank you.
**A:** inactive

**Q:** What outcome does the record of this test show for CCCCCCCC/C=C\CCCCCCCCO ?
**A:** inactive

**Q:** Which outcome was assigned to O=C(/C=C/c1ccc(O)c(O)c1)O[C@@H]1C[C@@](OC(=O)/C=C/c2ccc(O)c(O)c2)(C(=O)O)C[C@@H](O)[C@@H]1O in this test?
**A:** inactive

**Q:** // outcome(item) with item = CCCCCCCCCCCCCCN(CCO)CCO
**A:** active

**Q:** I'd appreciate the recorded outcome for Oc1cccc(Nc2ccccc2)c1 from this test.
**A:** inactive
